Molecular target: EHMT1 (Homo sapiens)
Sequence (Q9H9B1 whole entry, species assumed): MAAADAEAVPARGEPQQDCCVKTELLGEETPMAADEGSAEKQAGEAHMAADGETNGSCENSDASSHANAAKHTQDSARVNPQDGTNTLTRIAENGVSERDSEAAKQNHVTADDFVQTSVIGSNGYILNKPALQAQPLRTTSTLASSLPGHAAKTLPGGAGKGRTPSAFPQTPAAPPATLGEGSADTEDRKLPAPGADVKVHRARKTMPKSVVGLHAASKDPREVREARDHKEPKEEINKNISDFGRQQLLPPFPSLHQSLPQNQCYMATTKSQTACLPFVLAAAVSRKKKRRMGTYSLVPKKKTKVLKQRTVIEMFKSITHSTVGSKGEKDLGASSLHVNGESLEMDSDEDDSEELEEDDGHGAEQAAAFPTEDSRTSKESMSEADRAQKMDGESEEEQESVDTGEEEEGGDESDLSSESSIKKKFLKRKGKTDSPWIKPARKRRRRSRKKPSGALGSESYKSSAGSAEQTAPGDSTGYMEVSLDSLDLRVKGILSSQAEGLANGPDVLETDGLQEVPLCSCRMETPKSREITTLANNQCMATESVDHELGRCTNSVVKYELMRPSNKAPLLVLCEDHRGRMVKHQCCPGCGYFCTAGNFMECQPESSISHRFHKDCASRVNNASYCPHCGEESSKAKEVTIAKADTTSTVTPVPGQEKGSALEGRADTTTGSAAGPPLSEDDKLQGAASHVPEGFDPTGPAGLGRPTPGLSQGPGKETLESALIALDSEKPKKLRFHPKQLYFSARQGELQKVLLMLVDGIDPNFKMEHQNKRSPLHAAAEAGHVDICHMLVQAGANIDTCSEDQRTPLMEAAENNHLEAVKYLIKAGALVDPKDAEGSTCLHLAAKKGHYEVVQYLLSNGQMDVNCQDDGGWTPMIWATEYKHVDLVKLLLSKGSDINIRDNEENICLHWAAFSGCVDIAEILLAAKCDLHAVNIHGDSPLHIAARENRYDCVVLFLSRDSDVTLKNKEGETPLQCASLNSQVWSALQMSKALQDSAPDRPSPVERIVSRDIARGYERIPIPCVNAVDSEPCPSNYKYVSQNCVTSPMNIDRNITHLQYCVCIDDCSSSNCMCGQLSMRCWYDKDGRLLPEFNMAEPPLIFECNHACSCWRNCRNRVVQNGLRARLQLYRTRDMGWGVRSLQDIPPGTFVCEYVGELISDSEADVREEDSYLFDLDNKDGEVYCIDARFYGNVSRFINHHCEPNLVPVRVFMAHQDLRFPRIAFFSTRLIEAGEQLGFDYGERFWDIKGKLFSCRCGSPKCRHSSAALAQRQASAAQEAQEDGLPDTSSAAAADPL
Experiment: EHMT1 enzyme assay on peptide substrate (EHMT1 PEP)
Type: biochemical
Details: Table II; read-out: EHMT1 PEP (IC50 μM)
IC50 overview

// solved cases for IC50 follow
>  <compound>
COc1ccc(Nc2nccc(NCc3ccncc3)n2)cc1OCCCN1CCCC1

>  <measured.target>
EHMT1 (Homo sapiens)

>  <IC50>
< 0.1 µM

$$$$
>  <compound>
COc1ccc(Nc2nccc(N3CCN(S(C)(=O)=O)CC3)n2)cc1OCCCN1CCCC1

>  <measured.target>
EHMT1 (Homo sapiens)

>  <IC50>
> 10 µM

$$$$
>  <compound>
CNc1ccnc(Nc2cccc(OCC(O)CN3CCCC3)c2)n1 (stereo not drawn)

>  <measured.target>
EHMT1 (Homo sapiens)

>  <IC50>
1 to 10 µM

$$$$

We now examine a further compound.
Input line: Supply recorded IC50 for "COc1ccc(Nc2nccc(NCc3ccc(=O)[nH]c3)n2)cc1OCCCN1CCCC1" here.
Output line: 0.1 to 1 µM
